Experiment description: Cytotoxicity against human MDA1986 cells after 72 hrs by MTS assay
Type: functional, cell-based
Settings: MDA1986, 72 h
pIC50: −log10 of the molar value.
Attribute measured: pIC50

Here's what some known entries look like.
Name the recorded pIC50 for CC1=C(CO[C@@H]2O[C@H](CO)[C@@H](O[C@@H]3O[C@@H](C)[C@H](O)[C@@H](O)[C@H]3O)[C@H](O)[C@H]2O)C(=O)O[C@@H]([C@@H](C)[C@H]2CC[C@H]3[C@@H]4C[C@H]5O[C@]56[C@@H](O)C=CC(=O)[C@]6(C)[C@H]4CC[C@]23C)C1 [WITHALONGOLIDE H] .
5.09

Name the recorded pIC50 for CC1=C(CO[C@@H]2O[C@H](CO)[C@@H](O)[C@H](O)[C@H]2O)C(=O)O[C@@H]([C@@H](C)[C@H]2CC[C@H]3[C@@H]4C[C@H]5O[C@]56[C@@H](O)C=CC(=O)[C@]6(C)[C@H]4CC[C@]23C)C1 [SITOINDOSIDE IX] .
< 5.00

Name the recorded pIC50 for CC1=C(CO)C(=O)O[C@@H]([C@@H](C)[C@H]2CC[C@H]3[C@@H]4C[C@H]5O[C@]56[C@@H](O)C=CC(=O)[C@]6(CO)[C@H]4CC[C@]23C)C1 .
5.48

Name the recorded pIC50 for CO[C@H]1CC(=O)[C@]2(CO)[C@H]3CC[C@]4(C)[C@@H]([C@H](C)[C@H]5CC(C)=C(CO)C(=O)O5)CC[C@H]4[C@@H]3C[C@H]3O[C@]32[C@H]1O [WITHALONGOLIDE D] .
< 5.00

Name the recorded pIC50 for CC1=C(C)C(=O)O[C@@H]([C@@H](C)[C@H]2CC[C@H]3[C@@H]4C[C@H]5O[C@]56[C@@H](O)C=CC(=O)[C@]6(CO)[C@H]4CC[C@]23C)C1 [WITHALONGOLIDE B] .
5.89

Name the recorded pIC50 for CC1=C(CO[C@@H]2O[C@H](CO)[C@@H](O)[C@H](O)[C@H]2O)C[C@H]([C@@H](C)[C@H]2CC[C@H]3[C@@H]4C[C@H](O)C5=C(C(=O)C[C@H](O)C5)[C@H]4CC[C@]23C)OC1=O [WITHALONGOLIDE L] .
< 5.00

Name the recorded pIC50 for CC1=C(CO)C(=O)O[C@@H]([C@@H](C)[C@H]2CC[C@H]3[C@@H]4C[C@H]5O[C@]56[C@@H](O)C=CC(=O)[C@]6(C)[C@H]4CC[C@]23C)C1 [WITHAFERIN A] .
6.10

Name the recorded pIC50 for CO[C@H]1CC(=O)[C@]2(C)[C@H]3CC[C@]4(C)[C@@H]([C@H](C)[C@H]5CC(C)=C(CO)C(=O)O5)CC[C@H]4[C@@H]3C[C@H]3O[C@]32[C@H]1O .
< 5.00

Name the recorded pIC50 for CC(=O)OCC1=C(C)C[C@H]([C@@H](C)[C@H]2CC[C@H]3[C@@H]4C[C@H]5O[C@]56[C@@H](OC(C)=O)C=CC(=O)[C@]6(CO)[C@H]4CC[C@]23C)OC1=O .
5.66

Name the recorded pIC50 for CC1=C(CO[C@@H]2O[C@H](CO)[C@@H](O)[C@H](O)[C@H]2O)C[C@H]([C@@H](C)[C@H]2CC[C@H]3[C@@H]4CC(=O)C5=C(CC[C@@H](O)C5)[C@H]4CC[C@]23C)OC1=O [WITHALONGOLIDE N] .
< 5.00

Further cases:
Name the recorded pIC50 for CC1=C(CO)C(=O)O[C@@H]([C@@H](C)[C@H]2CC[C@H]3[C@@H]4CC=C5C=CC(=O)[C@]5(C)[C@H]4CC[C@]23C)C1 [WITHALONGOLIDE F] .
< 5.00

Name the recorded pIC50 for CC1=C(CO[C@@H]2O[C@H](CO)[C@@H](O)[C@H](O)[C@H]2O)C[C@H]([C@@H](C)[C@H]2CC[C@H]3[C@@H]4CC=C5C[C@@H](O)C[C@H](O)[C@]5(CO)[C@H]4CC[C@]23C)OC1=O [WITHALONGOLIDE J] .
< 5.00

Hello, the source for this data is ChEMBL document CHEMBL1933033, in case you need it.
